System: HEK293 pGL4
Test: Firefly_pGL signal, cmpd/DMSO (pGL4 control cells)
Assay type: cell-based
Settings: Homo sapiens, HEK293, pGL4; 1% FBS; 40 uM; read-out: Firefly, pGL4, 1% FBS, cmpd/DMSO (mean)
Listed molecules paired with reported fold induction at 40 µM
Please state the value as a number alone, without comment.

Past entries and their recorded results:
CC(C)OCCCN[C@H]1CS(=O)(=O)C[C@@H]1S(=O)(=O)c1ccc(Cl)cc1; 1.7
Cc1cc(S(=O)(=O)[C@H]2CS(=O)(=O)C[C@@H]2NCC2CCCO2)ccc1F (stereo partly drawn); 1.6
O=S1(=O)C[C@H](N2CCCC2)[C@@H](S(=O)(=O)c2cccs2)C1; 0.6
COc1ccc(CCN[C@H]2CS(=O)(=O)C[C@@H]2S(=O)(=O)c2ccc(Cl)cc2)cc1OC; 1.6

Which fold induction at 40 µM is listed for `CC(C)CCN[C@H]1CS(=O)(=O)C[C@@H]1S(=O)(=O)c1cccs1` ?
0.8

Which fold induction at 40 µM is listed for `CC1CCN([C@H]2CS(=O)(=O)C[C@@H]2S(=O)(=O)c2cccs2)CC1` ?
0.8

Which fold induction at 40 µM is listed for `COCCN[C@H]1CS(=O)(=O)C[C@@H]1S(=O)(=O)c1ccc(Cl)cc1` ?
1.6

Which fold induction at 40 µM is listed for CCC(C)N[C@H]1CS(=O)(=O)C[C@@H]1S(=O)(=O)c1ccc(C)cc1 (stereo partly drawn) ?
1.6

Which fold induction at 40 µM is listed for `C[C@@H]1C[C@H](C)CN([C@H]2CS(=O)(=O)C[C@@H]2S(=O)(=O)c2cccs2)C1` ?
1.1

====

Molecular target: NR2F6 (Homo sapiens, UniProt P10588)
Construct: expressed in transfected cells; also transient transfection
Sequence (P10588 whole entry): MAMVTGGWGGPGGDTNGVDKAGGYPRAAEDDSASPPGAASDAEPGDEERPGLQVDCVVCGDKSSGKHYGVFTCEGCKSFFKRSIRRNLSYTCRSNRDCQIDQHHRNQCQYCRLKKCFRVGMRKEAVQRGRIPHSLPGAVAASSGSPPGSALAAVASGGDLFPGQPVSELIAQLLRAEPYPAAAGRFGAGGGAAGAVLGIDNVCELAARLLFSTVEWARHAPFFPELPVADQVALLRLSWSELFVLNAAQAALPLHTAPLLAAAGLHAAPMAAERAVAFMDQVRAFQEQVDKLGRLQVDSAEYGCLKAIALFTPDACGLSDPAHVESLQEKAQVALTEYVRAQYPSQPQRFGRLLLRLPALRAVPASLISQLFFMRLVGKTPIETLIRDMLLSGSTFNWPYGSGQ
Assay: NR2F6 agonist screening, Firefly signal cmpd/DMSO
Type: cell-based
Conditions: 10% FBS; 40 uM
Test readout: F4, Firefly/Renilla for S/B(F4) > 3
Please state the value as a number alone, without comment.

Past entries and their recorded results:
C[C@@H]1C[C@H](C)CN([C@H]2CS(=O)(=O)C[C@@H]2S(=O)(=O)c2cccs2)C1 [Compound D109]; 1.3
COCCN[C@H]1CS(=O)(=O)C[C@@H]1S(=O)(=O)c1cccs1 [Compound D107]; 2.9
Cc1cccc(CN[C@H]2CS(=O)(=O)C[C@@H]2S(=O)(=O)c2ccc(Cl)cc2)c1 [Compound D127]; 2.1

Which F4, Firefly/Renilla for S/B(F4) > 3 is listed for CCCCN(C)[C@H]1CS(=O)(=O)C[C@@H]1S(=O)(=O)c1ccc(Cl)cc1 [Compound D132] ?
1.8

Which F4, Firefly/Renilla for S/B(F4) > 3 is listed for COCCCN[C@H]1CS(=O)(=O)C[C@@H]1S(=O)(=O)c1ccc(Cl)cc1 [Compound D126] ?
3.0

Which F4, Firefly/Renilla for S/B(F4) > 3 is listed for O=S1(=O)C[C@H](NC2CCCCC2)[C@@H](S(=O)(=O)c2ccccc2)C1 [Compound D111] ?
2.0

Which F4, Firefly/Renilla for S/B(F4) > 3 is listed for COc1ccc(CCN[C@H]2CS(=O)(=O)C[C@@H]2S(=O)(=O)c2ccc(Cl)cc2)cc1OC [Compound D129] ?
2.6

Which F4, Firefly/Renilla for S/B(F4) > 3 is listed for CC(C)CCN[C@H]1CS(=O)(=O)C[C@@H]1S(=O)(=O)c1cccs1 [Compound D110] ?
2.5
